Measurement target: AKT1 WT (Homo sapiens)
Construct: expressed in transfected cells; host or cells: HEK293
Sequence (P31749 whole entry): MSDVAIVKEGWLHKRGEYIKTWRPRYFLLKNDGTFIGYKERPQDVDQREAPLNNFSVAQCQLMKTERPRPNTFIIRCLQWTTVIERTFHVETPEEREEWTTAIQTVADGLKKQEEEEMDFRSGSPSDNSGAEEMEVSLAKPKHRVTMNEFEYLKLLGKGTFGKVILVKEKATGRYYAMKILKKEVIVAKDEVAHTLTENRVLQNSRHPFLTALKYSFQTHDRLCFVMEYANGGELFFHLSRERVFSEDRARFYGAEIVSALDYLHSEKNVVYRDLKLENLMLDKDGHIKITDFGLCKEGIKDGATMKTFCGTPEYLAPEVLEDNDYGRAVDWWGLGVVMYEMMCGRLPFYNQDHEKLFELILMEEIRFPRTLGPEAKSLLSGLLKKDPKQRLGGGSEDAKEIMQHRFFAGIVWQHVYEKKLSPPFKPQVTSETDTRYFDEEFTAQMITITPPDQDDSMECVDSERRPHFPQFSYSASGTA
Test details: Live cell AKT1 WT target engagement by NanoBRET competitive probe displacement in HEK293 cells
Type: binding
Particulars: NanoBRET competitive probe displacement, live HEK293 cells, 2 h at 37° C.; read-out: AKT1 WT IC50
Measurement type: IC50
# answer = value followed by unit

Worked cases, answers included:
>>> result_value("COc1nccc2c1CCC2N[C@H]1CCc2cc(-n3c(-c4cccnc4N)nc4ccc(-n5cccn5)nc43)ccc21 (stereo partly drawn) [Compound 508]")
"75.9 nM"
>>> result_value("Nc1ncccc1-c1nc2ccc(-n3cccn3)nc2n1-c1ccc2c(c1)CC[C@@H]2NC1CCN(C(=O)C2CC2)C1 (stereo partly drawn) [Compound 461]")
"109 nM"

Proceeding to the next compound to report its IC50.
input: Find the measured IC50 of "Nc1ncccc1-c1nc2ccc(-c3ccn(C4CCOCC4)n3)nc2n1-c1ccc2c(c1)CC[C@@H]2NC1CCN(C(=O)C2CC2)CC1" and report it.
output: 64.4 nM

* * *

Below is a list of entries, each paired with its recorded pIC50 value.
Measurement target: AKT2 (Homo sapiens, UniProt P31751)
Construct: expressed in transfected cells; host or cells: HEK293
Sequence (P31751 whole entry): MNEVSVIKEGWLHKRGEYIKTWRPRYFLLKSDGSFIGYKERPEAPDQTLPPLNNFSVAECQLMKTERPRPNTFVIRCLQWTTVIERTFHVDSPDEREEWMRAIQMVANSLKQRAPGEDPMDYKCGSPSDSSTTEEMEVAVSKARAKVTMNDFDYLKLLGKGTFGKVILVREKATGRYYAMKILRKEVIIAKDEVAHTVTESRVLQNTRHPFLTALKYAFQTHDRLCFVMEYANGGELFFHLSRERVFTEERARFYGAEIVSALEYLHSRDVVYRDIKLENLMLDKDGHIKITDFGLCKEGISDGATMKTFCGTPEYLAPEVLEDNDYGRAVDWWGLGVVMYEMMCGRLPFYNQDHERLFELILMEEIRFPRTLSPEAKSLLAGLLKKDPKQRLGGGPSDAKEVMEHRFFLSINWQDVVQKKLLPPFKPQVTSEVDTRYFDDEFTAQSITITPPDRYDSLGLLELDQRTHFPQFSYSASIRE
Test details: Live cell AKT2 target engagement by NanoBRET competitive probe displacement in HEK293 cells
Format: binding
Particulars: NanoBRET competitive probe displacement, live HEK293 cells, 2 h at 37° C.; read-out: AKT2 IC50
Reminder that pIC50 means the negative base-10 logarithm of the concentration expressed in mol/L.

Worked cases, answers included:
>>> result_value("Nc1ncccc1-c1nc2ccc(-n3ccc(OC(F)F)n3)nc2n1-c1ccc2c(c1)CC[C@@H]2NC1[C@@H]2COC[C@H]1CN(C(=O)C1CC1)C2 (stereo partly shown) [Compound 560]")
5.60
>>> result_value("Nc1ncccc1-c1nc2ccc(-n3cccn3)nc2n1-c1ccc2c(c1)CC(F)[C@@H]2NC1CCc2cnccc21 (single isomer, unassigned) [Compound 482]")
6.71
>>> result_value("Nc1ncccc1-c1nc2ccc(-n3cccn3)nc2n1-c1ccc2c(c1)CC[C@@H]2NC1CCN(C(=O)[C@H]2CCO2)CC1")
5.51
>>> result_value("COc1ccn(-c2ccc3nc(-c4cccnc4N)n(-c4ccc5c(c4)CC[C@@H]5NC4CCN(C(=O)C5CC5)CC4F)c3n2)n1 (stereo partly shown) [Compound 512]")
6.39
>>> result_value("Nc1ncccc1-c1nc2ccc(-n3cccn3)nc2n1-c1ccc2c(c1)CC[C@@H]2NC1CCN(C(=O)[C@@H]2C[C@@H]2F)CC1")
5.36
>>> result_value("Nc1ncccc1-c1nc2ccc(-n3cccn3)nc2n1-c1ccc2c(c1)CC[C@@H]2N[C@@H]1CCN(c2ccccc2)C1")
5.95
>>> result_value("Cn1ccc(Oc2ccc3nc(-c4cccnc4N)n(-c4ccc5c(c4)CC[C@@H]5NC(=O)c4cnc(C(F)F)s4)c3n2)n1")
5.12
>>> result_value("COc1cnc(C#N)nc1N1CCC(N[C@H]2CCc3cc(-n4c(-c5cccnc5N)nc5ccc(-n6cccn6)nc54)ccc32)CC1")
7.37
>>> result_value("COc1ccn(-c2ccc3nc(-c4cccnc4N)n(-c4ccc5c(c4)CC[C@@H]5NC4CCN(C(=O)C5CC5)CC4)c3n2)n1")
5.76
>>> result_value("Nc1ncccc1-c1nc2ccc(-n3cccn3)nc2n1-c1ccc2c(c1)CC[C@@H]2NC1CCN(C(=O)C2CC2(F)F)CC1 (stereo partly shown)")
5.45

input: Find the measured pIC50 of O=C(C1CC1)N1CCC(N[C@@H]2c3ccc(-n4c(-c5ccccc5F)nc5ccc(-n6ccc(N7CCOCC7)n6)nc54)cc3CC2F)CC1 (stereo partly shown) and report it.
output: 6.02

input: Find the measured pIC50 of "Nc1ncccc1-c1nc2ccc(-n3cccn3)nc2n1-c1ccc2c(c1)CC[C@@H]2NC(=O)c1cc(C2CC2)c(O)c(C(F)(F)F)c1" and report it.
output: 7.15
